# Test system: purified human plasma kallikrein (Homo sapiens (Human))
# Sequence (P03952 391-638): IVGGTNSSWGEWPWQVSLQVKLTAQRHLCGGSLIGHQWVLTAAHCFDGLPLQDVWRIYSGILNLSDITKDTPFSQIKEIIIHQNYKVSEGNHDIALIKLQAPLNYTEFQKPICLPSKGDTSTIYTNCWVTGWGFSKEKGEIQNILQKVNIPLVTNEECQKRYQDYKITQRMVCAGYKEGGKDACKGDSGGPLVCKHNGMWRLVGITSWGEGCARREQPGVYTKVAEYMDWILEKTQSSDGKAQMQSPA
# Sequence (P03952 20-390 partner): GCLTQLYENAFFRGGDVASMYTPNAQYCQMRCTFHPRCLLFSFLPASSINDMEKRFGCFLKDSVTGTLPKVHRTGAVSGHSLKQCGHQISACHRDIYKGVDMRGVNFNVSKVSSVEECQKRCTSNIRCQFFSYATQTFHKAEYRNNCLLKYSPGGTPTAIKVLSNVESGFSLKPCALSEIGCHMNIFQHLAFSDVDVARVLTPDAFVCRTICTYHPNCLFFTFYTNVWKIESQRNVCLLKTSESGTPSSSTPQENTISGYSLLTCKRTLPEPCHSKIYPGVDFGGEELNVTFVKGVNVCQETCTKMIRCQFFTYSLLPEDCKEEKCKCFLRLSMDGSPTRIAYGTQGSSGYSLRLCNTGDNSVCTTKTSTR
# Assay: Plasma kallikrein enzyme inhibition assay (chromogenic substrate S-2302)
# Format: biochemical
# Conditions used: measured at 25° C. (no asterisk)
pKi: −log10 of the molar value. Counter-ions that a name gives are not always drawn.
Please use 1 whenever pKi is not below 8, and -1 whenever it is.

Compound: O=C(O)c1ccc(NC(=O)C2c3cccc(N4CCCCC4=O)c3CCN2C(=O)c2cn(-c3cccc(Cl)c3F)nn2)cc1 (stereo not drawn) [Example 81]
Answer label: -1

Compound: O=C(O)c1ccc(NC(=O)[C@@H]2c3cccc(N4CCOCC4)c3CCN2C(=O)[C@H]2CC(c3cccc(Cl)c3F)=NO2)cc1 [Example 295, TFA salt]
Answer label: 1

Compound: COc1cccc2c1CCN(C(=O)[C@H]1CC(c3cccc(Cl)c3F)=NO1)[C@H]2C(=O)Nc1ccc(C(=O)O)cc1 [Example 294]
Answer label: -1

Compound: CNC(=O)c1ccc(-c2cccc3c2CCN(C(=O)c2cn(-c4cccc(Cl)c4F)nn2)[C@@H]3C(=O)Nc2ccc(C(=O)O)cc2)cn1 [Example 44, TFA salt]
Answer label: 1

Data request: Threshold query (pKi >= 8) on O=C(O)c1ccc(NC(=O)[C@@H]2c3cccc(N4CCC(N5CCCC5=O)CC4)c3CCN2C(=O)[C@H]2CC(c3cccc(Cl)c3F)=NO2)cc1 (single isomer, unassigned) [Example 207, TFA salt]
Data returned: -1

Data request: Check the entry CCOC(=O)Cc1ccc(NC(=O)C2c3cccc(-c4ccc(C(=O)NC)nc4)c3CCN2C(=O)c2cn(-c3cccc(Cl)c3F)nn2)cc1 (stereo not drawn) [Example 116, TFA salt] : does pKi equal or exceed 8?
Data returned: -1
